Where do these numbers come from? They come from patent US20240207421A1.

- TARGET: Laminin 421/521
- EXPERIMENTAL_PROTOCOL: phage display, NGS count
Classify as follows. Reported Count greater than or equal to 50: Met. Reported Count below: Not met.

The following binders have reported results that may help.
# BINDER, ASSIGNED_LABEL
data = [
    ("HSFLGAR", "Not met"),
    ("CSVWNSGNC", "Not met"),
    ("AHAAGRDMRQGT", "Not met"),
    ("CWSGNSRSC", "Not met"),
    ("SVLSTGTANQRH", "Not met"),
    ("WGLKLPH", "Met"),
    ("ETGGLAYGSGQK", "Not met"),
    ("QALRTNYSPLNS", "Not met"),
    ("AQNLRVHAWASL", "Not met"),
    ("CTDGRNFVC", "Not met"),
]

Request: Check the entry `ATSKYPNSWAQT` : does Count equal or exceed 50?
Response: Met

Request: In plain terms: is recorded Count at least 50 for `GQPRNIHLPGTH` ?
Response: Not met

Request: Would you say `WGANTTGRTHGG` shows Count at minimum 50?
Response: Not met

Request: Decide: is the reported value of Count for `SWHFTGTPFMNR` equal to or greater than 50?
Response: Not met

Request: Dear colleague, could you confirm whether `GFADVIHRKWSS` has Count at or above 50?
Response: Met
